experiment: Apparent permeability across apical to basolateral side in RRCK cells; format: ADME, cell-based, Canis lupus familiaris, MDCKII-LE; details: dog, MDCK
readout-kind: Papp A→B (×10⁻⁶ cm/s)
Report the figure in ×10⁻⁶ cm/s without appending any unit label.

Incoming: Report Papp A→B for C[C@@H]1CN(c2ccc3c(n2)NC(=O)CO3)[C@H](c2ccccc2)CO1
Outgoing: 45.9

====

Biological target: Mineralocorticoid receptor (Rattus norvegicus)
Sequence (P22199 whole entry): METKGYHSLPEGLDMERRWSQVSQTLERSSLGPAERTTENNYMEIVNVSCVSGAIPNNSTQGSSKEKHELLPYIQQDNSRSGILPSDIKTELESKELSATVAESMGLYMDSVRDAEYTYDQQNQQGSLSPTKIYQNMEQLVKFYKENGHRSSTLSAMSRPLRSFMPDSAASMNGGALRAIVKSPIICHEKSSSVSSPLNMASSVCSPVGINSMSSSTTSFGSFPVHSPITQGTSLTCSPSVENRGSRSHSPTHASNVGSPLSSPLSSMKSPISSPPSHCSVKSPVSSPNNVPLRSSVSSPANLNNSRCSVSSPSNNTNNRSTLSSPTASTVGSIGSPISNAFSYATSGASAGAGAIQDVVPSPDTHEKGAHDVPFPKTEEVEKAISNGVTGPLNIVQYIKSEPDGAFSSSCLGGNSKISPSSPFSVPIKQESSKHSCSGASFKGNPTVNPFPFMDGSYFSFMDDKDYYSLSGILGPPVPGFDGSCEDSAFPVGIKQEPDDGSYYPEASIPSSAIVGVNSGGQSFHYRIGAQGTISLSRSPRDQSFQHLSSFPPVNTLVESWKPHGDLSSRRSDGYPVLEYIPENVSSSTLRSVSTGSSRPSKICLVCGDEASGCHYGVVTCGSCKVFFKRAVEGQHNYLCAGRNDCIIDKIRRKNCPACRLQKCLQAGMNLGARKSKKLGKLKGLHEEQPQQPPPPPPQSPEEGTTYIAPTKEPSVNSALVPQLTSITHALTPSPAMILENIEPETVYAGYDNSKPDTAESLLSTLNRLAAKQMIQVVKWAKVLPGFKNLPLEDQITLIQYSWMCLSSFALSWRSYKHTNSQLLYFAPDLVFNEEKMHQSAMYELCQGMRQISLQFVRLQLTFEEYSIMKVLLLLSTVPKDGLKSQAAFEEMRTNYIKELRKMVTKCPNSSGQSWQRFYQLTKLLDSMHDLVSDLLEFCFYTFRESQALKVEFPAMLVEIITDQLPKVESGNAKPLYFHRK
Experiment: Antagonist activity at rat GAL4-DBD fused MR ligand binding domain transfected in human Huh7 cells co-expressing GAL4-RE-Luc assessed as reduction in aldosterone-induced luciferase activity after 16 hrs in serum free condition by luciferase reporter gene assay
readout-kind: IC50 (nM)
Report the figure in nM without appending any unit label.

Incoming: Report IC50 for C[C@@H]1CN(c2ccc3c(n2)NC(=O)CO3)[C@H](c2ccccc2)CO1
Outgoing: 3.2

====

Biological target: Glucocorticoid receptor (Homo sapiens, UniProt P04150)
Sequence (P04150 whole entry): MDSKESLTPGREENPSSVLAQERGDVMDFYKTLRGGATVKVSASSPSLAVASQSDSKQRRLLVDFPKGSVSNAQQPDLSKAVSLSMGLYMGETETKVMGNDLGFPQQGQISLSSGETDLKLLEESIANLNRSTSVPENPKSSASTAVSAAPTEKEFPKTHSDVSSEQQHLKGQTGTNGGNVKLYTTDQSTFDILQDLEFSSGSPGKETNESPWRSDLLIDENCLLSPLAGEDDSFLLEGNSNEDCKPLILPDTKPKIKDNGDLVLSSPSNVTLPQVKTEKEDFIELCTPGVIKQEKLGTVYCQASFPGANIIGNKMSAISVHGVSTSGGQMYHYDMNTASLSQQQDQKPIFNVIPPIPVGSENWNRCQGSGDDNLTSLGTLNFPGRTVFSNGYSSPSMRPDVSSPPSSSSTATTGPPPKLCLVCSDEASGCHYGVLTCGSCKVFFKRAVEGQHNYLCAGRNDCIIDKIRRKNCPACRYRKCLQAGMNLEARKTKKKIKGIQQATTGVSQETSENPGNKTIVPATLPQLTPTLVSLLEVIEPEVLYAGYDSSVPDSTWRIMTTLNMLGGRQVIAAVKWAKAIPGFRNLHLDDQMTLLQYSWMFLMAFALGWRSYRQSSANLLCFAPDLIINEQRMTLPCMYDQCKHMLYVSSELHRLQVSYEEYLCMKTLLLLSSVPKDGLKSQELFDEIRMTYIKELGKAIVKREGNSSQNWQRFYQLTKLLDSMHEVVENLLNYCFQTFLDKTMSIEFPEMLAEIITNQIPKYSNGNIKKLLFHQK
Experiment: Antagonist activity at GR (unknown origin) by Gal4-based cellular assay
Exercise: state measured IC50 for each of the compounds provided.

Incoming: Report IC50 for C[C@@H]1CN(c2ccc3c(n2)NC(=O)CO3)[C@H](c2ccccc2)CO1
Outgoing: > 10 µM

Incoming: Report IC50 for O=C1COc2ccc(N3CCOC[C@H]3c3ccccc3)cc2N1
Outgoing: > 10 µM

This collection of values is drawn from ChEMBL document CHEMBL4024791.
